assayInfo: gradient 5% acetonitrile 3 min, to 50% in 2 min, to 85% in 15 min, held 3 min, 100 µL/min
testSettings: column: Zorbax Extend-C18 2.1 x 50 mm; eluents: water / acetonitrile, 0.1% formic acid
quantityName: RP-LC retention time (s)

Entry `O=C(O)c1nnn(-c2ccc3c(c2)OCCO3)c1-c1cccnc1` — recorded RP-LC retention time = 568

(a) Cc1cc(Cl)ccc1S(=O)(=O)N1CCc2c(c(-c3nc(C4CC4)no3)nn2C)C1
(b) Cc1oc(-c2[nH]ncc2C(=O)N2CCCCC2)cc1S(=O)(=O)Nc1ccc(F)cc1
Task item: Among a and b , whose measured RP-LC retention time is the smaller figure? # reply format: chosen label
Reply: b
(b: 738 s, a: 1070 s)

(a) CC(NC(=O)c1cc2sccc2n1C)c1ccc2c(c1)OCCO2 (stereo not drawn)
(b) O=C(O)c1cc(N2CCN(CC(=O)N3CCCCCC3)CC2)ccc1NC(=O)C1CC1
Task item: Returns the identifier with the smallest measured RP-LC retention time among a and b . Response format: the label of the selected entry.
Reply: b
(b: 615 s, a: 903 s)

(A) Cc1nn(CC(=O)NCc2ccco2)c(=O)c2c(C)n(-c3ccccc3)nc12
(B) CCOc1ccccc1NC(=O)Cc1c(C)nn(-c2nc(-c3ccc(F)cc3)cs2)c1C
Task item: Compare reported RP-LC retention time values for A and B . Which is lower? Please respond with the label that marks your chosen entry.
Reply: A
